Each record here notes measured growth inhibition.
# System: SUDIPGXIII (diffuse intrinsic pontine glioma line)
# Assay: growth inhibition (% activity, log2 RLU normalised to DMSO / staurosporine); higher = more growth inhibition
# Reported conditions: 33 µM
// return numeric value only (unit: %, not printed)

• Nc1ccn(C2CSC(CO)O2)c(=O)n1 (stereo not given) = 0.705
• C[C@@]12C[C@@]3(O)O[C@@H](O1)[C@]1(COC(=O)c4ccccc4)[C@H]3C[C@@]12O[C@@H]1O[C@H](CO)[C@@H](O)[C@H](O)[C@H]1O = -13.1
• O=C(O)c1ccc(NC(=O)[C@H](Cc2ccc(O)cc2)NC(=O)c2ccccc2)cc1 = -0.558

In: Value lookup for growth inhibition; key = CCCCC1C(=O)N(c2ccccc2)N(c2ccccc2)C1=O
Out: -0.592

In: Field entry: Cc1ccccc1C(=O)Nc1ccc(C(=O)N2CCCC(O)c3cc(Cl)ccc32)c(C)c1 (stereo not given)
Out: 0.514

In: Field entry: Nc1ncn(C2OC(CO)C(O)C2O)c(=O)n1 (stereo not given)
Out: -1.9

In: Field entry: O=C(O)C1=CO[C@@H](O[C@@H]2O[C@H](CO)[C@@H](O)[C@H](O)[C@H]2O)[C@@H]2C(CO)=CC[C@H]12
Out: -1.52

In: Field entry: O=c1[nH]c(=O)n(C2CCCO2)cc1F (stereo not given)
Out: -6.49

In: Field entry: CC1=CC(=O)c2ccccc2C1=O
Out: -2.13

In: Field entry: CC(=O)Oc1ccccc1C(=O)O
Out: -16

In: Field entry: CC[C@H](C)C[C@H](C)CCCCCCCCC(=O)N[C@H]1C[C@@H](O)[C@@H](NCCN)NC(=O)[C@@H]2[C@@H](O)CCN2C(=O)[C@H]([C@H](O)CCN)NC(=O)[C@H]([C@H](O)[C@@H](O)c2ccc(O)cc2)NC(=O)[C@@H]2C[C@@H](O)CN2C(=O)[C@H]([C@@H](C)O)NC1=O
Out: 0.336

----------
Each record here notes measured growth inhibition.
# Test system: DIPGX37 (H3.3 K27M diffuse intrinsic pontine glioma line)
# Assay: growth inhibition (% activity, log2 RLU normalised to DMSO / staurosporine); higher = more growth inhibition
# Reported conditions: 33 µM

Illustrative cases are given below, each with its answer.
* CCCC(C(=O)OCCN(CC)CC)(c1ccccc1)c1ccccc1 | 1.54%
* Cc1ccccc1C(=O)Nc1ccc(C(=O)N2CCCC(O)c3cc(Cl)ccc32)c(C)c1 (stereo not given) | 2.36%
* CC(=O)Oc1cc2c(s1)CCN(C(C(=O)C1CC1)c1ccccc1F)C2 (stereo not given) | -2.57%
* CC(N)C12CC3CC(CC(C3)C1)C2 (stereo not given) | 2.59%
* COc1ccc(-c2nc3ccc(C4=NNC(=O)CC4C)cc3[nH]2)cc1 (stereo not given) | 2.28%

In: Value lookup for growth inhibition; key = CC(C(=O)O)c1ccc2c(c1)CC(=O)c1ccccc1S2 (stereo not given)
Out: 4.16%

In: Field entry: C#CCN[C@@H]1CCc2ccccc21
Out: 4.12%

----------
Each record here notes measured growth inhibition.
# Tested on: HGGX39 (paediatric high-grade glioma line)
# Assay: growth inhibition (% activity, log2 RLU normalised to DMSO / staurosporine); higher = more growth inhibition
# Reported conditions: 33 µM
Value and unit, in that order.

- O=C(Nc1c(Cl)cncc1Cl)c1ccc(OC(F)F)c(OCC2CC2)c1: 4.08%
- CO[C@H]1/C=C/O[C@@]2(C)Oc3c(C)c(O)c4c(O)c(c(/C=N/N5CCN(C6CCCC6)CC5)c(O)c4c3C2=O)NC(=O)/C(C)=C\C=C\[C@H](C)[C@H](O)[C@@H](C)[C@@H](O)[C@@H](C)[C@H](OC(C)=O)[C@@H]1C: 2.99%
- CCOC(=O)[C@H](CCc1ccccc1)N[C@@H](C)C(=O)N1Cc2ccccc2C[C@H]1C(=O)O: 5.5%
- CC1CCc2cc(F)cc3c(=O)c(C(=O)O)cn1c23 (stereo not drawn): 1.41%

In: Value lookup for growth inhibition; key = Nc1ccc(S(=O)(=O)Nc2ncccn2)cc1
Out: 0.395%

In: Field entry: OC(CCN1CCCC1)(c1ccccc1)C1CCCCC1 (stereo not drawn)
Out: -2.22%

In: Field entry: O.O.O.O.O=C([O-])CC(O)(CC(=O)[O-])C(=O)[O-].[Li+].[Li+].[Li+]
Out: -0.0466%

In: Field entry: C[C@H]1NC(=O)NC1=O
Out: -0.268%

In: Field entry: C#C[C@]1(O)CC[C@H]2[C@@H]3CCC4=CC(=O)CC[C@@H]4[C@H]3CC[C@@]21C
Out: 4.07%

In: Field entry: CC(C(=O)O)c1ccc2c(c1)Cc1cccnc1O2 (stereo not drawn)
Out: 3.25%

In: Field entry: COc1cc(/C=C/C(=O)N2CCN(CC(=O)N3CCCC3)CC2)cc(OC)c1OC
Out: 0.66%

In: Field entry: COc1cc2c(cc1OC)C(=O)C(CC1CCN(Cc3ccccc3)CC1)C2 (stereo not drawn)
Out: -1.59%
